system: NCI-H226 lung; experiment: NCI tumour cell line growth inhibition, 48 h

| Compound | GI50 |
| --- | --- |
| C=C(CNC(=O)Nc1ccc(-c2ccccc2)cc1)c1ccc(C(=O)Nc2ccccc2N)cc1 | > 100 µM |
| CCCN(CCC)CCCNCc1cc(I)cc(C)c1O | 22.3 µM |
| Cc1nc2sccn2c1/C=C1/C(=O)Nc2ccccc21 | 23.9 µM |
| COc1cccc(C2CC(c3cc(OC)c(OC)c(OC)c3)=NN2)c1 (stereo unspecified) | 28.9 µM |
| CO[C@H](C(=O)[C@@H](O)[C@@H](C)O)[C@@H]1Cc2cc3cc(O[C@H]4C[C@@H](O[C@H]5C[C@@H](O)[C@H](O)C(C)O5)[C@H](O)C(C)O4)c(C)c(O)c3c(O)c2C(=O)[C@H]1O[C@H]1C[C@@H](O[C@H]2C[C@@H](O[C@H]3C[C@@H](OC)[C@H](O)C(C)O3)[C@@H](O)C(C)O2)C(O)(O)C(C)O1 (stereo partly specified) | 0.0545 µM |
| O=S(=O)(Nc1ncccn1)c1ccc(N=Nc2ccc(O)c3ncccc23)cc1 | 13.4 µM |
